tested-target: human A1 AR (Homo sapiens, UniProt P30542)
Construct: expressed in transfected cells; host or cells: CHO cells
Sequence (P30542 whole entry): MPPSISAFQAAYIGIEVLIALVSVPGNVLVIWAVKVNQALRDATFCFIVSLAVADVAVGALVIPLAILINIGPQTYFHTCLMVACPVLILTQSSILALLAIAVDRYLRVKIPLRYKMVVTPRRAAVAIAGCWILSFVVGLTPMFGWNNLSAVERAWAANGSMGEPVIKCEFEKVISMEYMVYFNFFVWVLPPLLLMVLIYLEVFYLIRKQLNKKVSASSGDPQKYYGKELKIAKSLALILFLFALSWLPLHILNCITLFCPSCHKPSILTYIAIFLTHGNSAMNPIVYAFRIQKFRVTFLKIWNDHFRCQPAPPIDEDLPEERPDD
measurement-notes: Radioligand binding assay at human A1 AR vs. [^3H]CCPA
cond: human (h); CHO cell membranes; n = 3
pKi: −log10 of the molar value.
recorded-endpoint: pKi

Below, 5 molecules whose answers are already recorded.
CCn1c(=O)c2c(nc3n2CCN(Cc2cccc(F)c2)C3)n(C)c1=O [Compound 14g] | 7.07
CCn1c(=O)c2c(nc3n2CCN(Cc2ccccc2C(F)(F)F)C3)n(CC)c1=O [Compound 15f] | 6.89
C#CCn1c(=O)c2c(nc3n2CCN(CCc2ccccc2OC)C3)n(CC)c1=O [Compound 20i] | 5.90
C#CCn1c(=O)c2c(nc3n2CCN(Cc2ccc(Cl)c(Cl)c2)C3)n(C)c1=O [Compound 19a] | 6.01
C#CCn1c(=O)c2c(nc3n2CCN(CCc2ccccc2)C3)n(CC)c1=O [Compound 20h] | 5.61

A = CCn1c(=O)c2c(nc3n2CCN(Cc2cccc(C(F)(F)F)c2)C3)n(C)c1=O [Compound 14e]
B = CCn1c(=O)c2c(nc3n2CCN(Cc2cc(C(F)(F)F)ccc2Cl)C3)n(CC)c1=O [Compound 15n]
From the recorded data, which exceeds the other in pKi: A or B ? Provide the label of your selected option as the answer.
B
(B: 7.65, A: 6.81)

a = CCn1c(=O)c2c(nc3n2CCN(Cc2ccccc2C(F)(F)F)C3)n(C)c1=O [Compound 14d]
b = CCn1c(=O)n(C)c(=O)c2c1nc1n2CCN(Cc2ccc(Cl)c(Cl)c2)C1 [Compound 16a]
c = C#CCn1c(=O)c2c(nc3n2CCN(c2ccc(F)cc2)C3)n(CC)c1=O [Compound 20b]
Hey, quick one: sort these by pKi, largest value first please. Please write the labels in the order that was asked for.
a, b, c
(a: 6.61, b: 6.40, c: 5.82)

I = C#CCn1c(=O)c2c(nc3n2CCN(Cc2ccccc2OC)C3)n(CC)c1=O [Compound 20f]
II = C#CCn1c(=O)c2c(nc3n2CCN(CCc2cccc(OC)c2)C3)n(CC)c1=O [Compound 20j]
Consider entries I and II . Which has the numerically lower pKi? Output the label that corresponds to your choice.
II
(II: 5.99, I: 6.68)
